# Tested system: SIRT1 (Homo sapiens, UniProt Q96EB6)
# Experiment: Mass spectrometry based SIRT1 deacetylation (activation) assay
# Type: biochemical
# Test parameters: 0.5 μM peptide substrate, 120 μM βNAD+, 10 nM SIRT1, 25 min at 25° C.
Metric name: EC1.5

In the examples that follow, each entry is paired with its recorded EC1.5.
| Molecule | EC1.5 |
| --- | --- |
| CCc1nnc(-c2ccccc2NC(=O)c2cc(N(C)CCNC)nc(-c3ccccc3)n2)s1 | A (EC1.5≦1 uM) |
| CCN(CCN(C)C)c1cc(C(=O)Nc2ccccc2-c2nnc(C(N)=O)s2)nc(-c2ccccc2)n1 | A (EC1.5≦1 uM) |
| COCCN(CCOC)c1cc(C(=O)Nc2ccccc2-c2nnc(C(=O)N3CCOCC3)s2)nc(-c2ccccc2)n1 | A (EC1.5≦1 uM) |
| CCN(CCN(C)C)c1cc(C(=O)Nc2ccccc2C(=O)N[C@@H]2CCCC[C@H]2O)nc(-c2ccccc2)n1 | A (EC1.5≦1 uM) |
| COCCNC(=O)c1ccccc1NC(=O)c1cc(NCCN(C)C)nc(-c2ccccc2)n1 | C (EC1.5>10 uM) |
| O=C(Nc1ccccc1-c1nncs1)c1cc(NC(CO)CO)nc(-c2ccccc2)n1 | A (EC1.5≦1 uM) |
| CCN(CCN(C)C)c1cc(C(=O)Nc2ccccc2-c2nnc(-c3ccccc3)s2)nc(-c2ccccc2)n1 | A (EC1.5≦1 uM) |
| CN(C)CCNc1cc(C(=O)Nc2ccccc2-n2cc(-c3ccccc3)cn2)nc(-c2ccccc2)n1 | B (EC1.5>1 and ≦10 uM) |
| CN(C)CCNc1cc(C(=O)Nc2ccccc2C(=O)Nc2ccccn2)nc(-c2ccccc2)n1 | A (EC1.5≦1 uM) |
| CCN(CCN(C)C)c1cc(C(=O)Nc2ccccc2-c2ncc(-c3ccccc3)o2)nc(-c2ccccc2)n1 | A (EC1.5≦1 uM) |

Consider CN(C)CCNc1cc(C(=O)Nc2ccccc2-c2nnc(C3CCC3)s2)nc(-c2ccccc2)n1 . Its measured EC1.5 is B (EC1.5>1 and ≦10 uM)

Given item CCN(CCN(C)C)c1cc(C(=O)Nc2ccccc2-c2nnc(C3CCCC3)s2)nc(-c2ccccc2)n1 , the value recorded as its EC1.5 is B (EC1.5>1 and ≦10 uM)

The molecule listed as CCCc1nnc(-c2ccccc2NC(=O)c2cc(N(CC)CCN(C)C)nc(-c3ccccc3)n2)s1 has a reported EC1.5 of A (EC1.5≦1 uM)

Looking up CCN(CC)C(=O)c1ccccc1NC(=O)c1cc(NCCN(C)C)nc(-c2ccccc2)n1 , I see its EC1.5 listed as B (EC1.5>1 and ≦10 uM)

# molecule CN(C)CCNc1cc(C(=O)Nc2ccccc2C#N)nc(-c2ccccc2)n1 ; its EC1.5 = B (EC1.5>1 and ≦10 uM)

----------
# Tested system: SIRT1 (Homo sapiens, UniProt Q96EB6)
# Sequence (Q96EB6 1-747): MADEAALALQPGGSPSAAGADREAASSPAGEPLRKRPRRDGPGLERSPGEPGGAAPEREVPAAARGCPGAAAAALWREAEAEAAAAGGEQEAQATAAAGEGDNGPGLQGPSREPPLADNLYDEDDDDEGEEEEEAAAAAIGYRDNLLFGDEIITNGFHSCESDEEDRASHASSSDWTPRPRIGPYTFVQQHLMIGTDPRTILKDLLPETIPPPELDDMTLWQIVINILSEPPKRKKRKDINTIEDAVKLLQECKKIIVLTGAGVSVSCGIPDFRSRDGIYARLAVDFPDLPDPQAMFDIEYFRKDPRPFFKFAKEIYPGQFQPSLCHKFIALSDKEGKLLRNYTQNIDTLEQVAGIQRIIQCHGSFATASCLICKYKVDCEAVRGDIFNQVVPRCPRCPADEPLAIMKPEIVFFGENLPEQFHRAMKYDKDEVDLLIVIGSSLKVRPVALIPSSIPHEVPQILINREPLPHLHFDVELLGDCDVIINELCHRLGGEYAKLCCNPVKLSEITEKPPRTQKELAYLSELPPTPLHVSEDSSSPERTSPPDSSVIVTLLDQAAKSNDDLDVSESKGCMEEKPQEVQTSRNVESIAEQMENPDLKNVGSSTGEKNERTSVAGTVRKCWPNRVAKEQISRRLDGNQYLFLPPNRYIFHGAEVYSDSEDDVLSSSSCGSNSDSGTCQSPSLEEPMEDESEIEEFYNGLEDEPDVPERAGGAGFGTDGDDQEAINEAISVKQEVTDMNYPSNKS
# Experiment: Mass spectrometry based SIRT1 deacetylation (activation) assay
# Format: biochemical
# Test parameters: 25 min, 0.5 μM peptide substrate, 120 μM βNAD+, 10 nM SIRT1, 25 min at 25° C., read-out: % Fold Act. (percent maximum fold activation)
Metric name: Emax

# Emax (molecule: CCN(CCN(C)C)c1cc(C(=O)Nc2ccccc2-c2nnc(-c3ccccn3)s2)nc(-c2ccccc2)n1 ) is ≥ 300%

Please fill in: Emax reported for NC(=O)c1nnc(-c2ccccc2NC(=O)c2cc(N3CCNCC3)nc(-c3ccccc3)n2)s1 = 150 to 300%

CN(C)CCNc1cc(C(=O)Nc2ccccc2C(=O)Nc2cccnc2)nc(-c2ccccc2)n1 has a reported Emax of ≥ 300%

# Emax of CN(C)CCN(C)c1cc(C(=O)Nc2ccccc2-c2nnc(C3CCC3)s2)nc(-c2ccccc2)n1 = 150 to 300%

Given item CN(C)CCNc1cc(C(=O)Nc2ccccc2-c2nnc(C3CCC3)s2)nc(-c2ccccc2)n1 , the value recorded as its Emax is 150 to 300%

Entry CN(C)CCNc1cc(C(=O)Nc2ccccc2-c2ncc(C(C)(C)C)o2)nc(-c2ccccc2)c1 — recorded Emax = ≥ 300%

Emax reported for this molecule O=C1CN(c2cc(C(=O)Nc3ccccc3-c3nnc(N4CCN5CCC[C@H]5C4)s3)nc(-c3ccccc3)n2)CCN1 : 150 to 300%
